experiment: Clearance in rat at 1 mg/kg, iv measured up to 24 hrs by LC-MS/MS analysis; format: ADME, organism-based; settings: in vivo
READOUT: clearance (mL/min/kg)
Give your result in mL/min/kg as a bare value.

The compound `COC(=O)N[C@H](C(=O)N1CCC[C@H]1c1ncc(-c2ccc3c(c2)OCc2cc(-c4cnc([C@@H]5CCCN5C(=O)[C@@H](NC(=O)OC)C(C)C)[nH]4)sc2-3)[nH]1)C(C)C` showed clearance equal to 10

The compound `COC(=O)N[C@H](C(=O)N1CCC[C@H]1c1ncc(-c2ccc3c(ccc4cc(-c5cnc([C@@H]6CCCN6C(=O)[C@@H](NC(=O)OC)C(C)C)[nH]5)sc43)c2)[nH]1)C(C)C` showed clearance equal to 11

The compound `COC(=O)N[C@H](C(=O)N1CCC[C@H]1c1nc(Cl)c(-c2ccc3c(c2)OCC(C)(C)COc2cc(-c4[nH]c([C@@H]5CCCN5C(=O)[C@@H](NC(=O)OC)C(C)C)nc4Cl)ccc2-3)[nH]1)C(C)C` showed clearance equal to 37

The compound `COC(=O)N[C@H](C(=O)N1CCC[C@H]1c1ncc(-c2ccc3c(c2)OCC(C)(C)COc2cc(-c4cnc([C@@H]5CCCN5C(=O)[C@@H](NC(=O)OC)C(C)C)[nH]4)ccc2-3)[nH]1)C(C)C` showed clearance equal to 17

Turning now to a further record.
The compound `COC(=O)N[C@H](C(=O)N1CCC[C@H]1c1ncc(-c2ccc3c(c2)CCc2cc(-c4cnc([C@@H]5CCCN5C(=O)[C@@H](NC(=O)OC)C(C)C)[nH]4)sc2-3)[nH]1)C(C)C` showed clearance equal to 10

* * *

assay: Clearance in beagle dog at 1 mg/kg, iv measured up to 24 hrs by LC-MS/MS analysis; format: ADME, organism-based, Canis lupus familiaris; settings: in vivo
READOUT: clearance (mL/min/kg)
Give your result in mL/min/kg as a bare value.

The compound `COC(=O)N[C@H](C(=O)N1CCC[C@H]1c1ncc(-c2ccc3c(ccc4cc(-c5cnc([C@@H]6CCCN6C(=O)[C@@H](NC(=O)OC)C(C)C)[nH]5)sc43)c2)[nH]1)C(C)C` showed clearance equal to 6

The compound `COC(=O)N[C@H](C(=O)N1CCC[C@H]1c1ncc(-c2ccc3c(c2)CCc2cc(-c4cnc([C@@H]5CCCN5C(=O)[C@@H](NC(=O)OC)C(C)C)[nH]4)sc2-3)[nH]1)C(C)C` showed clearance equal to 5

The compound `COC(=O)N[C@H](C(=O)N1CCC[C@H]1c1ncc(-c2ccc3c(c2)OCc2cc(-c4cnc([C@@H]5CCCN5C(=O)[C@@H](NC(=O)OC)C(C)C)[nH]4)sc2-3)[nH]1)C(C)C` showed clearance equal to 7

* * *

assay: Cytotoxicity in human HuH7 cells assessed as inhibition of cell growth at 3 uM incubated for 72 hrs by CCK8 assay relative to control; assay type: cell-based, Huh-7; settings: read-out: GI
Rule: inhibition at 72 h, 3 µM of 3% or more gives T; anything lower gives F.

Recorded results for 3 compounds are shown here.
Ask: Does the compound `COC(=O)N[C@H](C(=O)N1CCC[C@H]1c1ncc(-c2ccc3c(c2)OCC(C)(C)COc2cc(-c4cnc([C@@H]5CCCN5C(=O)[C@@H](NC(=O)OC)C(C)C)[nH]4)ccc2-3)[nH]1)C(C)C` have recorded inhibition at 72 h, 3 µM that is 3% or more?
Result: T

Ask: Does the compound `COC(=O)N[C@H](C(=O)N1CCC[C@H]1c1ncc(-c2ccc3c(c2)CCc2cc(-c4cnc([C@@H]5CCCN5C(=O)[C@@H](NC(=O)OC)C(C)C)[nH]4)sc2-3)[nH]1)C(C)C` have recorded inhibition at 72 h, 3 µM that is 3% or more?
Result: F

Ask: Does the compound `COC(=O)N[C@H](C(=O)N1CCC[C@H]1c1nc(Cl)c(-c2ccc3c(c2)OCC(C)(C)COc2cc(-c4[nH]c([C@@H]5CCCN5C(=O)[C@@H](NC(=O)OC)C(C)C)nc4Cl)ccc2-3)[nH]1)C(C)C` have recorded inhibition at 72 h, 3 µM that is 3% or more?
Result: T

Would you kindly look at the next entry?
Ask: Does the compound `COC(=O)N[C@H](C(=O)N1CCC[C@H]1c1ncc(-c2ccc3c(ccc4cc(-c5cnc([C@@H]6CCCN6C(=O)[C@@H](NC(=O)OC)C(C)C)[nH]5)sc43)c2)[nH]1)C(C)C` have recorded inhibition at 72 h, 3 µM that is 3% or more?
Result: F

Cited source for all entries: ChEMBL document CHEMBL4321845
